Assay explanation: Solubility of the compound in fasted-state simulated intestinal fluid at pH 6.8
Assay type: ADME
Measurement label: solubility (µg/mL)
Report the value in µg/mL with no unit label.

Ask: solubility lookup needed for `Cc1c(NC(=O)c2cc3c(s2)CCCC3)cccc1-c1cn(C)c(=O)c(Nc2ccc([C@@H]3C(=O)N(C)CCN3C)cc2)n1` , thanks.
Reply: 7

----------
Assay explanation: Clearance in mouse
Type: ADME, organism-based
Condition description: in vivo
Measurement label: clearance (mL/min/kg)
Report the value in mL/min/kg with no unit label.

Ask: clearance lookup needed for `Cc1c(NC(=O)c2cc3c(s2)CCCC3)cccc1-c1cn(C)c(=O)c(Nc2ccc([C@@H]3C(=O)N(C)CCN3C)cc2)n1` , thanks.
Reply: 43

----------
Assay explanation: Clearance in cynomolgus monkey
Assay type: ADME, organism-based, Macaca fascicularis
Condition description: in vivo
Measurement label: clearance (mL/min/kg)
Report the value in mL/min/kg with no unit label.

Ask: clearance lookup needed for `Cc1c(NC(=O)c2cc3c(s2)CCCC3)cccc1-c1cn(C)c(=O)c(Nc2ccc([C@@H]3C(=O)N(C)CCN3C)cc2)n1` , thanks.
Reply: 33

----------
Assay target: hERG (KCNH2) (Homo sapiens)
Sequence (Q12809 whole entry): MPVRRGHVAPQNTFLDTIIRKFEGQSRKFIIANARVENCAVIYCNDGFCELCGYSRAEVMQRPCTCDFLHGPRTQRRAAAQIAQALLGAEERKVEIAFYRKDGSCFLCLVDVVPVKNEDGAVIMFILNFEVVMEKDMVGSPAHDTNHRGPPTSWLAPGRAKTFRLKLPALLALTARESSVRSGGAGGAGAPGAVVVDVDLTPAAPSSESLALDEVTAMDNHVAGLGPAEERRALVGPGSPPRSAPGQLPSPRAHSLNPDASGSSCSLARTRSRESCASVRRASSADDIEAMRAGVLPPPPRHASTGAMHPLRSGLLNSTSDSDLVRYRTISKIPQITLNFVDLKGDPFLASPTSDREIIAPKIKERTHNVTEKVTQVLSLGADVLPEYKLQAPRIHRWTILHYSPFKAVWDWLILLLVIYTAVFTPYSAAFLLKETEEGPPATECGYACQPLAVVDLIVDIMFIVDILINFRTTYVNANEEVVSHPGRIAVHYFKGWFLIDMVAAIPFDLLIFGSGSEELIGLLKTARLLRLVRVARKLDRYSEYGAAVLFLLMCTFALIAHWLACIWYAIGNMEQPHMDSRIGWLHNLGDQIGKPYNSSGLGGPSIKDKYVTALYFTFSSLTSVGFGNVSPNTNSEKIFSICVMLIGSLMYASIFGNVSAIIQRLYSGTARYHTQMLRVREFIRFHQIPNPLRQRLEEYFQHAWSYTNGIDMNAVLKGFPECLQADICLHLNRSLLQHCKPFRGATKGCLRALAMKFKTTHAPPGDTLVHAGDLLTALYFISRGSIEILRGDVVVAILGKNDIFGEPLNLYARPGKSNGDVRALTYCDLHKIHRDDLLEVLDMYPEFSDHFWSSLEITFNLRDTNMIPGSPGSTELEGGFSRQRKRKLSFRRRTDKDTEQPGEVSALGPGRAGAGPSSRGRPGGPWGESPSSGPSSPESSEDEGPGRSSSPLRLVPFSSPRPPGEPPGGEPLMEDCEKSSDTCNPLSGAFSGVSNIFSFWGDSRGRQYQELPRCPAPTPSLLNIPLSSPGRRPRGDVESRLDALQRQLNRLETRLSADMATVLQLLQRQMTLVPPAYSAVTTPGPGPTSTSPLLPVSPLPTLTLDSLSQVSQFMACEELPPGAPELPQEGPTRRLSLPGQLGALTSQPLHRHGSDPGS
Assay explanation: Inhibition of human ERG at 10 uM
Measurement label: inhibition at 10 µM (%)
Report the value in % with no unit label.

Ask: Request body: readout inhibition at 10 µM, system hERG (KCNH2) (Homo sapiens), query `Cc1c(NC(=O)c2cc3c(s2)CCCC3)cccc1-c1cn(C)c(=O)c(Nc2ccc([C@@H]3C(=O)N(C)CCN3C)cc2)n1` . Return the value.
Reply: 27

----------
Assay explanation: Oral bioavailability in mouse
Type: ADME, organism-based
Condition description: in vivo
Measurement label: bioavailability
In your response, the unit should come after the numeric value.

Ask: bioavailability lookup needed for `Cc1c(NC(=O)c2cc3c(s2)CCCC3)cccc1-c1cn(C)c(=O)c(Nc2ccc([C@@H]3C(=O)N(C)CCN3C)cc2)n1` , thanks.
Reply: 18%

----------
# collection of IC50 values tested on Tyrosine-protein kinase BTK (Homo sapiens)
# Sequence (Q06187 whole entry): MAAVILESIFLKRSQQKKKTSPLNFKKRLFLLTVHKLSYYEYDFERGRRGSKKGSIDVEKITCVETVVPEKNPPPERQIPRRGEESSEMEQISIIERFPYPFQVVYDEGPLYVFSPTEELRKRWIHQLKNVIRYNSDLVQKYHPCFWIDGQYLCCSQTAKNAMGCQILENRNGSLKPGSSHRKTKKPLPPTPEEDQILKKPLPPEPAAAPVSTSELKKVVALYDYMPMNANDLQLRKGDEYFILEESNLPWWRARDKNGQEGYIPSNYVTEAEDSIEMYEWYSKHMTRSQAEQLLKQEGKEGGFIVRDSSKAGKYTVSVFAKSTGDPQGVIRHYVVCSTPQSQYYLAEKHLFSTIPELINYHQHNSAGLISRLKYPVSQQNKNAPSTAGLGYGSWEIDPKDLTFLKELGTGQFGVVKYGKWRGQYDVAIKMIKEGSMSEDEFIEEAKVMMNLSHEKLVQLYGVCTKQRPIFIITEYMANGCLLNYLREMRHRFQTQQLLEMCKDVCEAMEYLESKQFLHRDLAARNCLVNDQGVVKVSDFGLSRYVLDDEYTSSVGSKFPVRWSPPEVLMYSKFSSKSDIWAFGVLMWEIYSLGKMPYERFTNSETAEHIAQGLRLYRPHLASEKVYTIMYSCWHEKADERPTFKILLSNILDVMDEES
Report the value in nM with no unit label.

As a guide, the following entries are already answered.
{"columns": ["Compound string", "Unit text", "IC50"],
 "data": [
  ["Cc1c(NC(=O)c2cnc(C(C)(C)C)cn2)cccc1-c1cn(C)c(=O)c(Nc2ccc(C(=O)N3CCOCC3)cc2)n1", "nM", 70],
  ["Cc1c(NC(=O)c2ccc(C(C)(C)O)cc2)cccc1-c1cn(C)c(=O)c(Nc2ccc(C(=O)N3CCOCC3)cc2)n1", "nM", 150],
  ["Cc1c(NC(=O)c2ccc([Si](C)(C)C)cc2)cccc1-c1cn(C)c(=O)c(Nc2ccc(C(=O)N3CCOCC3)cc2)n1", "nM", 90]
]}

Ask: Request body: readout IC50, system Tyrosine-protein kinase BTK (Homo sapiens), query `Cc1c(NC(=O)c2ccc(C(C)(C)C)nc2)cccc1-c1cn(C)c(=O)c(Nc2ccc(C(=O)N3CCOCC3)cc2)n1` . Return the value.
Reply: 130
